Data origin: patent US20230105029A1

- TARGET_UNDER_TEST: T1, recombinant human IL4Rα-his protein (in house made) (human, UniProt P24394 26-232, limits assumed)
- T1 construct: also called Human IL4Ra-his
- EXPERIMENT_SUMMARY: SPR (Biacore), antibody captured, IL4Rα-his flowed
RECORDED_METRIC: kon (M⁻¹ s⁻¹)
Give bare numbers, in M⁻¹ s⁻¹.

Recorded results for 5 binders are shown here.
| BINDER | RESULT |
| --- | --- |
| huB8G11F2B7G5E8-V2 (antibody, human IgG4 S228P, kappa, V domains shown, Humanized, human IgG4/kappa; also called huBSG11F2B7G5E8-V2) VH: EVQLVQSGAEVKKPGATVKISCKVSGFNIKDTYMHWVKQAPGKGLEWVGRIDPTNGYTIYASKFQGKATITADTSSNTAYMELSSLRSEDTAVYHCVSRRPWFAYWGQGTLVTVSS VL: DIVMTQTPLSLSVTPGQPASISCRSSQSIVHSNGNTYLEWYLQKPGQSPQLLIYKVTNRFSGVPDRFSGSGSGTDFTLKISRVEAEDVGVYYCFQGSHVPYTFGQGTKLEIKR | 521000 |
| huB8G11F2B7G5E8-V4 (antibody, human IgG4 S228P, kappa, V domains shown, Humanized, human IgG4/kappa; also called huBSG11F2B7G5E8-V4) VH: EVQLVQSGAEVKKPGATVKISCKASGFNIKDTYMHWVKQAPGKGLEWMGRIDPTNGYTIYASKFQGKATITADTSSNTAYMELSSLRSEDTAVYHCVSRRPWFAYWGQGTLVTVSS VL: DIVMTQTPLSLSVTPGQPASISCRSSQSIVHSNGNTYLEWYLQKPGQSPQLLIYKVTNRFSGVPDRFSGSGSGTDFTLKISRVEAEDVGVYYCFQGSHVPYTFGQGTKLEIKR | 577000 |
| huB8G11F2B7G5E8-V6 (antibody, human IgG4 S228P, kappa, V domains shown, Humanized, human IgG4/kappa; also called huBSG11F2B7G5E8-V6) VH: EVQLVQSGAEVKKPGATVKISCKASGFNIKDTYMHWVKQAPGKGLEWVGRIDPTNGYTIYASKFQGKVTITADTSSNTAYMELSSLRSEDTAVYHCVSRRPWFAYWGQGTLVTVSS VL: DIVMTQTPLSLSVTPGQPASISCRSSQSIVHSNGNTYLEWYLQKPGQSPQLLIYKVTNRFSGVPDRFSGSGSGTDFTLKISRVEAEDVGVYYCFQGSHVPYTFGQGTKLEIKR | 554000 |
| huB8G11F2B7G5E8-V7 (antibody, human IgG4 S228P, kappa, V domains shown, Humanized, human IgG4/kappa; also called huBSG11F2B7G5E8-V7) VH: EVQLVQSGAEVKKPGATVKISCKASGFNIKDTYMHWVKQAPGKGLEWVGRIDPTNGYTIYASKFQGKATITADTSTNTAYMELSSLRSEDTAVYHCVSRRPWFAYWGQGTLVTVSS VL: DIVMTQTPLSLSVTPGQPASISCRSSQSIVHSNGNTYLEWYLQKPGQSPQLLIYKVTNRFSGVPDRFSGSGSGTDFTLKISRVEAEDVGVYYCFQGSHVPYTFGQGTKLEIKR | 592000 |
| huB8G11F2B7G5E8-V3 (antibody, human IgG4 S228P, kappa, V domains shown, Humanized, human IgG4/kappa; also called huBSG11F2B7G5E8-V3) VH: EVQLVQSGAEVKKPGATVKISCKASGFNIKDTYMHWVQQAPGKGLEWVGRIDPTNGYTIYASKFQGKATITADTSSNTAYMELSSLRSEDTAVYHCVSRRPWFAYWGQGTLVTVSS VL: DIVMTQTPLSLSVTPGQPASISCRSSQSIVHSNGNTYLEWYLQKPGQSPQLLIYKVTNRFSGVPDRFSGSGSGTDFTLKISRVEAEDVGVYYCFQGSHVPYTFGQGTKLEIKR | 558000 |

Below are 4 binders. Give each one its kon.
1. huB8G11F2B7G5E8-V1 (antibody, human IgG4 S228P, kappa, V domains shown, Humanized, human IgG4/kappa; also called huBSG11F2B7G5E8-V1) VH: EVQLVQSGAEVKKPGATVKISCKASGFNIKDTYMHWVKQAPGKGLEWVGRIDPTNGYTIYASKFQGKATITADTSSNTAYMELSSLRSEDTAVYHCVSRRPWFAYWGQGTLVTVSS VL: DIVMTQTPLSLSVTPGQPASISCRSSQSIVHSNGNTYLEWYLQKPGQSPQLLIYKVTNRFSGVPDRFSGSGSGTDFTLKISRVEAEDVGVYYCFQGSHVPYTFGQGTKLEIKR
2. huB8G11F2B7G5E8-V9 (antibody, human IgG4 S228P, kappa, V domains shown, Humanized, human IgG4/kappa; also called huBSG11F2B7G5E8-V9) VH: EVQLVQSGAEVKKPGATVKISCKASGFNIKDTYMHWVKQAPGKGLEWVGRIDPTNGYTIYASKFQGKATITADTSSNTAYMELSSLRSEDTAVYYCVSRRPWFAYWGQGTLVTVSS VL: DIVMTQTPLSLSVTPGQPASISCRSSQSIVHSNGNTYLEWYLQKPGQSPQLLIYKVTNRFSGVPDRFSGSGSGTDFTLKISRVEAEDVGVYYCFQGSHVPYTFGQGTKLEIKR
3. huB8G11F2B7G5E8-V13 (antibody, human IgG4 S228P, kappa, V domains shown, Humanized, human IgG4/kappa; also called huBSG11F2B7G5E8-V13) VH: QVQLQQSGAELVKPGASVKLSCTASGFNIKDTYMHWVKQRPEQGLEWVGRIDPTNGYTIYASKFQGKATITADTSSNTAYMQLSSLTSEDTAVYHCVSRRPWFAYWGQGTTLTVSS VL: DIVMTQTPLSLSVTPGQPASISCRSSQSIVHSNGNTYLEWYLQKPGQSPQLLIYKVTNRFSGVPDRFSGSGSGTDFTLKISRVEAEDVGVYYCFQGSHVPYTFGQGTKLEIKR
4. huB8G11F2B7G5E8-V8 (antibody, human IgG4 S228P, kappa, V domains shown, Humanized, human IgG4/kappa; also called huBSG11F2B7G5E8-V8) VH: EVQLVQSGAEVKKPGATVKISCKASGFNIKDTYMHWVKQAPGKGLEWVGRIDPTNGYTIYASKFQGKATITADTSSDTAYMELSSLRSEDTAVYHCVSRRPWFAYWGQGTLVTVSS VL: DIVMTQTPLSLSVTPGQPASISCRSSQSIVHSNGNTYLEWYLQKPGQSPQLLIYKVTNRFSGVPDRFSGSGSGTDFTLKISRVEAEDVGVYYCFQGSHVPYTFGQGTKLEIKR

Data returned:
557000
621000
310000
578000
